System: Danio rerio Tg(wt1b:EGFP) embryo, pronephros
measurement notes: glomerular separation, fold change vs DMSO control; higher = glomeruli further apart (abnormal)
assay conditions: 25 µM; exposure: 24-48 hpf
Where a name gives a salt, the structure may show the parent alone.
reported property: glomerular separation
Answers are plain numbers.

{"compound": "CCN1CCCC1CNC(=O)c1cc(S(=O)(=O)CC)c(N)cc1OC (centres undefined) [Amisulpride]", "glomerular separation": 0.971}

Give glomerular separation for each of the items listed below.
1. NS(=O)(=O)c1cc(C(=O)O)c(NCc2ccco2)cc1Cl [Furosemide]
2. COc1ccc(CN(CCN(C)C)c2ccccn2)cc1 [Pyrilamine maleate]
3. O=c1[nH]cnc2c1ncn2[C@H]1CC[C@@H](CO)O1
4. CCCN(CCC)CCc1cccc2c1CC(=O)N2 [Ropinirole hydrochloride]
5. CCCCN(CCCC)CCCOC(=O)c1ccc(N)cc1
6. CCn1cc(C(=O)O)c(=O)c2cc(F)c(N3CCNCC3)nc21

0.867
1.29
1.24
1.34
0.928
0.719

Give glomerular separation for each of the items listed below.
1. CCc1nn(CCCN2CCN(c3cccc(Cl)c3)CC2)c(=O)n1CCOc1ccccc1 [Nefazodone hydrochloride]
2. CCCCCCC[N+](CC)(CC)CCCCc1ccc(Cl)cc1 [Clofilium tosylate]

0.987
0.78

Source listed as the supplement of paper PMC7366291.
